- ASSAYED_SYSTEM: CDK2 / proteolyzed cyclin A complex (Homo sapiens, UniProt P24941)
- Construct: cyclin A: E. coli, then limited proteolysis
- PROTOCOL_TEXT: Inhibition of CDK2/Cyclin A retinoblastoma kinase activity
- RUN_CONDITIONS: Rb fragment substrate, CDK2 at 10 nM or 19 nM
ENDPOINT_LABEL: log10 of Ki (log10 of the value in nM)
Log scale reminder: Ki in nM, then log10 taken.

For orientation, consider the following solved cases.
[
  {
    "COMPOUND": "CNC(C)(C)CNC(=O)c1ccc(Nc2nc(N)c(C(=O)c3c(F)cccc3F)s2)nc1",
    "ASSAYED_SYSTEM": "CDK2 / proteolyzed cyclin A complex (Homo sapiens, UniProt P24941)",
    "log10 of Ki": 1.54
  },
  {
    "COMPOUND": "CN(C)C(C)(C)CNC(=O)c1ccc(Nc2nc(N)c(C(=O)c3c(F)cccc3F)s2)nc1",
    "ASSAYED_SYSTEM": "CDK2 / proteolyzed cyclin A complex (Homo sapiens, UniProt P24941)",
    "log10 of Ki": 0.93
  },
  {
    "COMPOUND": "C[C@H](CN(C)C)NC(=O)c1ccc(Nc2nc(N)c(C(=O)c3c(F)cccc3F)s2)nc1",
    "ASSAYED_SYSTEM": "CDK2 / proteolyzed cyclin A complex (Homo sapiens, UniProt P24941)",
    "log10 of Ki": 0.64
  },
  {
    "COMPOUND": "CCN1CCCC1CNC(=O)c1ccc(Nc2nc(N)c(C(=O)c3c(F)cccc3F)s2)nc1 (centres unmarked)",
    "ASSAYED_SYSTEM": "CDK2 / proteolyzed cyclin A complex (Homo sapiens, UniProt P24941)",
    "log10 of Ki": 1.63
  },
  {
    "COMPOUND": "CN1CCC[C@H]1CNC(=O)c1ccc(Nc2nc(N)c(C(=O)c3c(F)cccc3F)s2)nc1",
    "ASSAYED_SYSTEM": "CDK2 / proteolyzed cyclin A complex (Homo sapiens, UniProt P24941)",
    "log10 of Ki": 0.86
  }
]

Data request: Using the record for CNCCNC(=O)c1ccc(Nc2nc(N)c(C(=O)c3c(F)cccc3F)s2)nc1 , report its log10 of Ki.
Data returned: 1.32

Data request: Using the record for Nc1nc(Nc2ccc(C(=O)Nc3ccccn3)cn2)sc1C(=O)c1c(F)cccc1F , report its log10 of Ki.
Data returned: 1.26

Data request: Using the record for CN1CCC[C@H]1CNC(=O)c1ccc(Nc2nc(N)c(C(=O)c3c(F)cccc3F)s2)cn1 [Example C1A, reference compound] , report its log10 of Ki.
Data returned: 2.51

Data request: Using the record for Nc1nc(Nc2ccc(C(=O)NCCN3CCCC3)cn2)sc1C(=O)c1c(F)cccc1F , report its log10 of Ki.
Data returned: 1.04

Data request: Using the record for CN(C)C1(CNC(=O)c2ccc(Nc3nc(N)c(C(=O)c4c(F)cccc4F)s3)nc2)CCC1 , report its log10 of Ki.
Data returned: 1.59

* * *

- Tested on: HCT-116 cells
- PROTOCOL_TEXT: Inhibition of cell growth, MTT tetrazolium salt assay
- Format: cell-based
- RUN_CONDITIONS: Homo sapiens, 144 h, four to six days incubation, second value of the cell, 90% inhibition of growth, read-out: HCT116 IC90
- Experimental: Inhibition of Cell Growth: Assessment of Cytotoxicity: Inhibition of cell growth was measured using the tetrazolium salt assay, which is based on the ability of viable cells to reduce 3-(4,5-dimethylthiazol-2-yl)-2,5-[2H]-diphenyltetrazolium bromide (MTT) to formazan (Mosmann, T. J. Immunol. Methods 1983, 65, 55-63). The water-insoluble purple formazan product was then detected spectrophotometrically. HCT-116 cells were grown in 96-well plates. […]
ENDPOINT_LABEL: IC90 (nM)
Give just the numeric value; nM need not be written.

For orientation, consider the following solved cases.
[
  {
    "COMPOUND": "Nc1nc(Nc2ccc(C(=O)Nc3ccccn3)cn2)sc1C(=O)c1c(F)cccc1F",
    "IC90 / nM": 36000
  },
  {
    "COMPOUND": "CN1CCN(c2ccc(Nc3nc(N)c(C(=O)c4c(F)cccc4F)s3)nc2)CC1",
    "IC90 / nM": 180
  },
  {
    "COMPOUND": "Nc1nc(Nc2ccc(C(=O)NCCN3CCCC3)cn2)sc1C(=O)c1c(F)cccc1F",
    "IC90 / nM": 50
  },
  {
    "COMPOUND": "Nc1nc(Nc2ccc(C(=O)NCCN3CCCCC3)cn2)sc1C(=O)c1c(F)cccc1F",
    "IC90 / nM": 40
  },
  {
    "COMPOUND": "Nc1nc(Nc2ccc(C(=O)NCc3ccccn3)cn2)sc1C(=O)c1c(F)cccc1F",
    "IC90 / nM": 210
  }
]

Data request: Using the record for CN1CCC[C@H]1CNC(=O)c1ccc(Nc2nc(N)c(C(=O)c3c(F)cccc3F)s2)nc1 , report its IC90.
Data returned: 170

Data request: Using the record for CCN1CCCC1CNC(=O)c1ccc(Nc2nc(N)c(C(=O)c3c(F)cccc3F)s2)nc1 (stereo not shown) , report its IC90.
Data returned: 60

Data request: Using the record for CNC(C)(C)CNC(=O)c1ccc(Nc2nc(N)c(C(=O)c3c(F)cccc3F)s2)nc1 , report its IC90.
Data returned: 250

Data request: Using the record for Nc1nc(Nc2ccc(C(=O)Nc3ccccc3)cn2)sc1C(=O)c1c(F)cccc1F , report its IC90.
Data returned: 400

* * *

- ASSAYED_SYSTEM: human CDK4 / truncated (1-264) cyclin D3 complex (Homo sapiens, UniProt P11802)
- Sequence (P11802 whole entry, the tested form may be a part): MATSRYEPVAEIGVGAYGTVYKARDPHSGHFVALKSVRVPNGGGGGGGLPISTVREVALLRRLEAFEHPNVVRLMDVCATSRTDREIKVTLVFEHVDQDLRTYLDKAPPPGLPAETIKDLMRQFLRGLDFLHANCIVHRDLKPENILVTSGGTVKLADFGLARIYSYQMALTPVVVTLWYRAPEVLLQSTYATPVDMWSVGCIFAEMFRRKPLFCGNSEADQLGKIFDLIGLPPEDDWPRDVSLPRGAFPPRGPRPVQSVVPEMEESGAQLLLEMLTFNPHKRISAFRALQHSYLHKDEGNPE
- Sequence (P30281 1-264 partner limits assumed): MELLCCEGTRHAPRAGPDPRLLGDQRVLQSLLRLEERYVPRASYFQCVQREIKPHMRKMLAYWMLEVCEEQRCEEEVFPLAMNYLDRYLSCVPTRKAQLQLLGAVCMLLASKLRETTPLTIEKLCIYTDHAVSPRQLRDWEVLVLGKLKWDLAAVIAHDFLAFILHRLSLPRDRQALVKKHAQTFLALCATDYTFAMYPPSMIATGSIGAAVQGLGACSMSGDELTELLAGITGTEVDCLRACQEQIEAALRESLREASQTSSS
- PROTOCOL_TEXT: Inhibition of CDK4/Cyclin D retinoblastoma kinase activity
- RUN_CONDITIONS: Rb fragment substrate, enzyme complex 5 nM
ENDPOINT_LABEL: pKi
Lab note — pKi values are minus log10 of concentrations in M.

[
  {
    "COMPOUND": "CN(C)C(C)(C)CNC(=O)c1ccc(Nc2nc(N)c(C(=O)c3c(F)cccc3F)s2)nc1",
    "pKi": 8.89
  }
]

Data request: Using the record for CNC(C)(C)CNC(=O)c1ccc(Nc2nc(N)c(C(=O)c3c(F)cccc3F)s2)nc1 , report its pKi.
Data returned: 8.64

Data request: Using the record for Nc1nc(Nc2ccc(C(=O)NCc3ccccn3)cn2)sc1C(=O)c1c(F)cccc1F , report its pKi.
Data returned: 7.92

Data request: Using the record for CNCCNC(=O)c1ccc(Nc2nc(N)c(C(=O)c3c(F)cccc3F)s2)nc1 , report its pKi.
Data returned: 8.48

Data request: Using the record for CN(C)C1(CNC(=O)c2ccc(Nc3nc(N)c(C(=O)c4c(F)cccc4F)s3)nc2)CCC1 , report its pKi.
Data returned: 8.57

Data request: Using the record for CCN1CCCC1CNC(=O)c1ccc(Nc2nc(N)c(C(=O)c3c(F)cccc3F)s2)nc1 (centres unmarked) , report its pKi.
Data returned: 8.15

Data request: Using the record for C[C@H](CN(C)C)NC(=O)c1ccc(Nc2nc(N)c(C(=O)c3c(F)cccc3F)s2)nc1 , report its pKi.
Data returned: 9.21

Data request: Using the record for Nc1nc(Nc2ccc(C(=O)NCCN3CCCCC3)cn2)sc1C(=O)c1c(F)cccc1F , report its pKi.
Data returned: 8.37

Data request: Using the record for CN1CCN(c2ccc(Nc3nc(N)c(C(=O)c4c(F)cccc4F)s3)nc2)CC1 , report its pKi.
Data returned: 8.96

Data request: Using the record for Nc1nc(Nc2ccc(C(=O)NCc3cccnc3)cn2)sc1C(=O)c1c(F)cccc1F , report its pKi.
Data returned: 8.18

* * *

# IC90 annotations
- System: HCT-116 cells
- PROTOCOL_TEXT: Inhibition of cell growth, MTT tetrazolium salt assay
- Type: cell-based
- RUN_CONDITIONS: Homo sapiens, 144 h, four to six days incubation, second value of the cell, 90% inhibition of growth, read-out: HCT116 IC90
Give just the numeric value; µM need not be written.

For orientation, consider the following solved cases.
[
  {
    "COMPOUND": "CN1CCC[C@H]1CNC(=O)c1ccc(Nc2nc(N)c(C(=O)c3c(F)cccc3F)s2)cn1 [Example C1A, reference compound]",
    "ASSAYED_SYSTEM": "HCT-116 cells",
    "IC90 / µM": 0.65
  },
  {
    "COMPOUND": "C[C@H](CN(C)C)NC(=O)c1ccc(Nc2nc(N)c(C(=O)c3c(F)cccc3F)s2)nc1",
    "ASSAYED_SYSTEM": "HCT-116 cells",
    "IC90 / µM": 0.0057
  },
  {
    "COMPOUND": "CN(C)C1(CNC(=O)c2ccc(Nc3nc(N)c(C(=O)c4c(F)cccc4F)s3)nc2)CCC1",
    "ASSAYED_SYSTEM": "HCT-116 cells",
    "IC90 / µM": 0.02
  },
  {
    "COMPOUND": "C[C@H](CN(C)C)NC(=O)c1ccc(Nc2nc(N)c(C(=O)c3c(F)cccc3F)s2)cn1 [Example C1B, reference compound]",
    "ASSAYED_SYSTEM": "HCT-116 cells",
    "IC90 / µM": 0.28
  },
  {
    "COMPOUND": "CNCCNC(=O)c1ccc(Nc2nc(N)c(C(=O)c3c(F)cccc3F)s2)nc1",
    "ASSAYED_SYSTEM": "HCT-116 cells",
    "IC90 / µM": 0.7
  },
  {
    "COMPOUND": "CN(C)C(C)(C)CNC(=O)c1ccc(Nc2nc(N)c(C(=O)c3c(F)cccc3F)s2)nc1",
    "ASSAYED_SYSTEM": "HCT-116 cells",
    "IC90 / µM": 0.0085
  }
]

Moving on to another compound below.
Data request: Using the record for CN(C)CCNC(=O)c1ccc(Nc2nc(N)c(C(=O)c3c(F)cccc3F)s2)nc1 , report its IC90.
Data returned: 0.021
